Just for reference, ChEMBL document CHEMBL1155242 is where these values come from.

# Experiment Description: Stability in mouse serum assessed as intact compound remaining at 10 to 20 uCi/mL after 60 mins by reversed phase HPLC analysis
# Type: ADME, cell-free
# Condition Notes: read-out: Stability
Parameter: remaining at 1 h

# compound "CCOC(=O)CCC(=O)O[C@H]1C[C@H](n2cc([125I])c(=O)[nH]c2=O)O[C@@H]1CO" ; its remaining at 1 h = < 2%

====

# Experiment Description: Stability in human serum assessed as intact compound remaining at 10 to 20 uCi/mL after 60 mins by size-exclusion HPLC analysis
# Type: ADME, cell-free
# Condition Notes: read-out: Stability
Parameter: remaining at 1 h (%)
Numbers only, in %.

Sample "O=c1[nH]c(=O)n([C@H]2C[C@H](O)[C@@H](COP(=O)(O)O)O2)cc1[125I]" ; remaining at 1 h observed: 30
